Give growth for every item shown.
tested on: SW-620 colon; assay: NCI-60 one-dose screen, 48 h (100 = growth as untreated, 0 = no growth, -100 = all killed); settings: 10 µM
Compounds without any hit were thinned out: in the full panel of roughly 83,000, 20% have a hit.
Give the number; % is assumed, so skip it.

Returns the measured growth for the input compound. Input: `O=C(O)c1ccc(Cl)cc1Nc1ccc(F)cc1` 94.6

I have this compound here, `CCOC(=O)N1C/C(=C/c2ccc(F)cc2)C(=O)/C(=C/c2ccc(F)cc2)C1` , and I need its recorded growth. -66

Fill in: growth of `Nc1nc(-c2ccccc2Cl)cc(-c2ccc(Cl)cc2Cl)n1` is ___ 39

Could you tell me which growth is on file for `Cc1ccc(NC(=O)NC2CCCCC2)cc1` ? 108

Recorded growth for `Nc1ccccc1NC(=O)CCCCC(=O)Nc1ccc2c(c1)/C(=C/c1ccc[nH]1)C(=O)N2` , please? 91.3

Look up growth for this compound: `CCCCCCCCN(CCCCCCCC)CCCCCCCCCN1CCCc2cc(OC)ccc21` 99
